Where do the numbers come from? From patent US20150018384A1.

Target: PHD3 (Homo sapiens, UniProt Q9H6Z9)
Sequence (Q9H6Z9 whole entry): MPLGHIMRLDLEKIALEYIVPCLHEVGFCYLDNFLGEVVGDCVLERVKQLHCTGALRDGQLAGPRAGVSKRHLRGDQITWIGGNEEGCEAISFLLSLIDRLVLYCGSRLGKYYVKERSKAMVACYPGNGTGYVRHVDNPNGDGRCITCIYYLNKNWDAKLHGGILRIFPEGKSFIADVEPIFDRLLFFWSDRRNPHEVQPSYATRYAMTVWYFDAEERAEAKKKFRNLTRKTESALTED
measured-property: IC50

- compound: "Cc1nc(C(=O)NCC(=O)O)c(O)c2ccc(Oc3ccccc3)cc12 [Compound A]"
  test-target: "PHD3 (Homo sapiens, UniProt Q9H6Z9)"
  value-measured: "200 to 2000 nM"

* * *

System: Cholesterol Biosynthesis Genes in the Mouse Liver
Experiment: Microarray expression of cholesterol biosynthesis genes in mouse liver
Type: in vivo
Conditions: 10 mg/kg oral, 4 h
Description: A number of PHI compounds were evaluated for their effect on the expression of cholesterol biosynthesis genes in mouse liver. […] Liver tissue was harvested and stored in RNALater (Life Technologies). […] RNA concentration was measured by NanoDrop (Thermo), and quality was assessed by Bioanalyzer (Agilent). […] Animals were sacrificed 4 h or 8 h later. […] RNA concentration was measured by NanoDrop (Thermo), and quality was assessed by Bioanalyzer (Agilent). […]
Kindly apply the following: met if phosphomevalonate kinase (Pmvk) RNA expression is less than 0.7 fold-change, not met in every other case.

- molecule: "N#Cc1nc(C(=O)NCC(=O)O)c(O)c2ccn(Cc3ccc4ccccc4c3)c12 [Compound J]"
  category-label: "met"
- molecule: "N#Cc1nc(C(=O)NCC(=O)O)c(O)c2ccn(Cc3ccccc3F)c12 [Compound G]"
  category-label: "not met"
- molecule: "COc1ccc(Cn2c(Cl)c(Cl)c3c(O)c(C(=O)NCC(=O)O)nc(C#N)c32)cc1 [Compound F]"
  category-label: "met"
- molecule: "COc1ccc(Cn2cc(Br)c3c(O)c(C(=O)NCC(=O)O)nc(C#N)c32)cc1 [Compound K]"
  category-label: "not met"
- molecule: "Cc1cccc(C)c1Oc1ccc2c(O)c(C(=O)NCC(=O)O)nc(C#N)c2c1 [Compound I]"
  category-label: "not met"

* * *

System: Cholesterol Biosynthesis Genes in the Mouse Liver
Experiment: Microarray expression of cholesterol biosynthesis genes in mouse liver
Format: in vivo
Conditions: 10 mg/kg oral, 8 h
Experimental: A number of PHI compounds were evaluated for their effect on the expression of cholesterol biosynthesis genes in mouse liver. […] Liver tissue was harvested and stored in RNALater (Life Technologies). […] RNA concentration was measured by NanoDrop (Thermo), and quality was assessed by Bioanalyzer (Agilent). […] Animals were sacrificed 4 h or 8 h later. […] RNA concentration was measured by NanoDrop (Thermo), and quality was assessed by Bioanalyzer (Agilent). […]
measured-property: NAD(P) dependent steroid dehydrogenase-like (Nsdhl) RNA expression (fold-change)

- item-smiles: "COc1ccc(Cn2c(Cl)c(Cl)c3c(O)c(C(=O)NCC(=O)O)nc(C#N)c32)cc1"
  value-units: "fold-change"
  value-measured: 1.40
- item-smiles: "N#Cc1nc(C(=O)NCC(=O)O)c(O)c2ccn(Cc3ccccc3F)c12"
  value-units: "fold-change"
  value-measured: 1.00
- item-smiles: "COc1ccc(Cn2cc(Br)c3c(O)c(C(=O)NCC(=O)O)nc(C#N)c32)cc1"
  value-units: "fold-change"
  value-measured: 0.56
- item-smiles: "Cc1cccc(C)c1Oc1ccc2c(O)c(C(=O)NCC(=O)O)nc(C#N)c2c1"
  value-units: "fold-change"
  value-measured: 0.21
- item-smiles: "N#Cc1nc(C(=O)NCC(=O)O)c(O)c2ccn(Cc3ccc4ccccc4c3)c12"
  value-units: "fold-change"
  value-measured: 1.03

* * *

# 7-dehydrocholesterol reductase (Dhcr7) RNA expression values compiled below
System: Cholesterol Biosynthesis Genes in the Mouse Liver
Assay: Microarray expression of cholesterol biosynthesis genes in mouse liver
Format: in vivo
Conditions: 10 mg/kg oral, 8 h
measured-property: 7-dehydrocholesterol reductase (Dhcr7) RNA expression (fold-change)

- compound: "N#Cc1nc(C(=O)NCC(=O)O)c(O)c2ccn(Cc3ccccc3F)c12 [Compound G]"
  value-measured: 1.07
- compound: "COc1ccc(Cn2c(Cl)c(Cl)c3c(O)c(C(=O)NCC(=O)O)nc(C#N)c32)cc1 [Compound F]"
  value-measured: 1.18
- compound: "COc1ccc(Cn2cc(Br)c3c(O)c(C(=O)NCC(=O)O)nc(C#N)c32)cc1 [Compound K]"
  value-measured: 0.61
- compound: "N#Cc1nc(C(=O)NCC(=O)O)c(O)c2ccn(Cc3ccc4ccccc4c3)c12 [Compound J]"
  value-measured: 0.94
- compound: "Cc1cccc(C)c1Oc1ccc2c(O)c(C(=O)NCC(=O)O)nc(C#N)c2c1 [Compound I]"
  value-measured: 0.30

* * *

Tested on: Cholesterol Biosynthesis Genes in the Mouse Liver
Test: Microarray expression of cholesterol biosynthesis genes in mouse liver
Assay type: in vivo
Conditions: 10 mg/kg oral, 8 h
Parameter threshold = 0.2 fold-change. Response is 1 (yes) when sterol-C4-methyl oxidase-like (Sc4mol) RNA expression meets or exceeds it, else 0 (no).

- item-smiles: "COc1ccc(Cn2c(Cl)c(Cl)c3c(O)c(C(=O)NCC(=O)O)nc(C#N)c32)cc1"
  category-label: "1 (yes)"
- item-smiles: "Cc1cccc(C)c1Oc1ccc2c(O)c(C(=O)NCC(=O)O)nc(C#N)c2c1"
  category-label: "0 (no)"
- item-smiles: "COc1ccc(Cn2cc(Br)c3c(O)c(C(=O)NCC(=O)O)nc(C#N)c32)cc1"
  category-label: "1 (yes)"
- item-smiles: "N#Cc1nc(C(=O)NCC(=O)O)c(O)c2ccn(Cc3ccccc3F)c12"
  category-label: "1 (yes)"
- item-smiles: "N#Cc1nc(C(=O)NCC(=O)O)c(O)c2ccn(Cc3ccc4ccccc4c3)c12"
  category-label: "1 (yes)"

* * *

Molecular target: PHD1 (Homo sapiens)
Sequence (Q96KS0 whole entry): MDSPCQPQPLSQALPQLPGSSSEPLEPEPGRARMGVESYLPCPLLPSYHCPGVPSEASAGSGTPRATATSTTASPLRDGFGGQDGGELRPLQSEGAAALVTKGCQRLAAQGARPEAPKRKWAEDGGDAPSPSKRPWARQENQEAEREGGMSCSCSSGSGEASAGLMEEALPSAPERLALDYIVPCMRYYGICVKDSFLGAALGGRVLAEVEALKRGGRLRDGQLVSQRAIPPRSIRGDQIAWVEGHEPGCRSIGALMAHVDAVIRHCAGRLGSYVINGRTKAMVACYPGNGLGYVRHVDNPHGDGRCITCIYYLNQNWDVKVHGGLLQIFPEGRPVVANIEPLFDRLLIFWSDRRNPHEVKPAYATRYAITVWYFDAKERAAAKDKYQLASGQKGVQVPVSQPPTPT
Assay: HIF prolyl hydroxylase enzyme assay, PHD1
Assay type: biochemical
measured-property: IC50

- compound: "Cc1nc(C(=O)NCC(=O)O)c(O)c2ccc(Oc3ccccc3)cc12 [Compound A]"
  value-measured: "200 to 2000 nM"

* * *

Tested on: Cholesterol Biosynthesis Genes in the Mouse Liver
Assay: Microarray expression of cholesterol biosynthesis genes in mouse liver
Type: in vivo
Conditions: 10 mg/kg oral, 4 h
measured-property: sterol-C4-methyl oxidase-like (Sc4mol) RNA expression (fold-change)

- molecule: "Cc1cccc(C)c1Oc1ccc2c(O)c(C(=O)NCC(=O)O)nc(C#N)c2c1 [Compound I]"
  test-target: "Cholesterol Biosynthesis Genes in the Mouse Liver"
  value-measured: 0.88
- molecule: "COc1ccc(Cn2cc(Br)c3c(O)c(C(=O)NCC(=O)O)nc(C#N)c32)cc1 [Compound K]"
  test-target: "Cholesterol Biosynthesis Genes in the Mouse Liver"
  value-measured: 0.65
- molecule: "COc1ccc(Cn2c(Cl)c(Cl)c3c(O)c(C(=O)NCC(=O)O)nc(C#N)c32)cc1 [Compound F]"
  test-target: "Cholesterol Biosynthesis Genes in the Mouse Liver"
  value-measured: 0.39
- molecule: "N#Cc1nc(C(=O)NCC(=O)O)c(O)c2ccn(Cc3ccc4ccccc4c3)c12 [Compound J]"
  test-target: "Cholesterol Biosynthesis Genes in the Mouse Liver"
  value-measured: 0.27
- molecule: "N#Cc1nc(C(=O)NCC(=O)O)c(O)c2ccn(Cc3ccccc3F)c12 [Compound G]"
  test-target: "Cholesterol Biosynthesis Genes in the Mouse Liver"
  value-measured: 0.87
